System: CRFK cells
Conditions: cytotoxicity, feline corona virus test

{"compound": "CCc1c(CNCC2COCCOCCOCCOCCO2)c(CC)c(CNc2cc(C)cc(C)n2)c(CC)c1CNc1cc(C)cc(C)n1 (stereo not drawn) [Co12]", "tested.system": "CRFK cells", "Feline Corona virus CC50": "11 ± 0 µg/mL"}
{"compound": "CCc1c(CC#N)c(CC)c(CNc2cc(C)cc(C)n2)c(CC)c1CNc1cc(C)cc(C)n1 [Co19]", "tested.system": "CRFK cells", "Feline Corona virus CC50": "10.8 µg/mL"}
{"compound": "Cc1ccc2ccc(NC(=O)c3cccc(C(=O)Nc4ccc5ccc(C)nc5n4)c3)nc2n1 [Sc74]", "tested.system": "CRFK cells", "Feline Corona virus CC50": ">100 µg/mL"}
{"compound": "CCOC(=O)CNc1cccc(NCc2c(CC)c(CNc3cccc(C)n3)c(CC)c(CNc3cccc(C)n3)c2CC)n1 [AH29]", "tested.system": "CRFK cells", "Feline Corona virus CC50": "13.3 µg/mL"}
{"compound": "Cc1ccc2ccc(NCc3c(C)c(CNc4ccc5ccc(C)nc5n4)c(C)c(CNc4ccc5ccc(C)nc5n4)c3C)nc2n1 [Compound 24]", "tested.system": "CRFK cells", "Feline Corona virus CC50": ">100 µg/mL"}
{"compound": "CCc1c(CNc2ccc3ccc(C)nc3n2)c(CC)c(CNc2ccc3ccc(C)nc3n2)c(CC)c1CNc1ccc2ccc(C)nc2n1 [Compound 25]", "tested.system": "CRFK cells", "Feline Corona virus CC50": "92 ± 9 µg/mL"}

---

Tested on: Sindbis virus
Test: Antiviral activity, Sindbis virus
Assay type: cell-based
Conditions: Sindbis virus; Table 3, reference compounds
# EC50 per record follows
recorded.metric: EC50

{"compound.structure.string": "NC(=O)c1ncn([C@@H]2O[C@H](CO)[C@@H](O)[C@H]2O)n1", "recorded.metric": "EC50", "result.value": "250 µM"}
{"compound.structure.string": "O=c1[nH]c(=O)n([C@H]2C[C@H](O)[C@@H](CO)O2)cc1/C=C/Br", "recorded.metric": "EC50", "result.value": "> 250 µM"}

---

Tested on: Influenza B
Test: Anti-influenza activity in MDCK cells, Influenza B
Format: cell-based
Conditions: visual scoring of the CPE
# EC50 Influenza B visual CPE score per record follows

{"compound.structure.string": "CCc1c(CNc2cccc(C(C)=NO)c2)c(CC)c(CNc2cc(C)cc(C)n2)c(CC)c1CNc1cc(C)cc(C)n1", "EC50 Influenza B visual CPE score": ">4 µg/mL"}
{"compound.structure.string": "Cc1ccc2ccc(NC(=O)c3cccc(C(=O)Nc4ccc5ccc(C)nc5n4)c3)nc2n1", "EC50 Influenza B visual CPE score": "10.9 ± 1.1 µg/mL"}
{"compound.structure.string": "Cc1ccc(O)c(NC(=O)c2cc(C(=O)Nc3cc(C)ccc3O)cc(C(=O)Nc3cc(C)ccc3O)c2)c1", "EC50 Influenza B visual CPE score": ">0.8 µg/mL"}
{"compound.structure.string": "Cc1cc(C)c2ccc(NC(=O)c3cc(C(=O)Nc4ccc5c(C)cc(C)nc5n4)cc(C(=O)Nc4ccc5c(C)cc(C)nc5n4)c3)nc2n1", "EC50 Influenza B visual CPE score": ">4 µg/mL"}
{"compound.structure.string": "CCc1c(CN)c(CC)c(CNc2cc(C)cc(C)n2)c(CC)c1CNc1cc(C)cc(C)n1", "EC50 Influenza B visual CPE score": ">0.8 µg/mL"}
{"compound.structure.string": "CCc1c(CN)c(CC)c(CNc2cc(C)cc(C)n2)c(CC)c1CNc1cc(C)cc(C)n1.Cl", "EC50 Influenza B visual CPE score": ">0.8 µg/mL"}
{"compound.structure.string": "CCc1c(CNc2ccc3ccc(C)nc3n2)c(CC)c(CNc2ccc3ccc(C)nc3n2)c(CC)c1CNc1ccc2ccc(C)nc2n1", "EC50 Influenza B visual CPE score": ">4 µg/mL"}
{"compound.structure.string": "CCc1c(CNc2cccc(C)n2)c(CC)c(CNc2cccc(NC(=O)Cc3ccccc3)n2)c(CC)c1CNc1cccc(C)n1", "EC50 Influenza B visual CPE score": ">4 µg/mL"}
